Source of measurements: the supplement of paper PMC6757056

B1: library; a variant is named by its letters at N, in order (parent)
chain: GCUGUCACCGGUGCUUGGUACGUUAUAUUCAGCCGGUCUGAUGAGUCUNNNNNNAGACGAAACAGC

# Variants of: B1
# ASSAY_METHOD_TEXT: normalized RNA/DNA level without ligand (relative to sTRSVctl = 100) (log10 (% of sTRSVctl)); HEK293T overexpressing SLC46A1; higher = less ribozyme self-cleavage, higher mRNA level
# CONDITION_PARAMETERS: without (6R,S)-folinic acid; ligand present: no
For each record, write down the corresponding normalized RNA/DNA level without ligand (log10).
Answers are plain numbers.

>>> measured_result("GGGAGU")
1.98
>>> measured_result("CUGAAA")
1.99
>>> measured_result("UCGGAC")
2.05

List the reported normalized RNA/DNA level without ligand (log10) of each variant below.
1. GAGGCC
2. ACAUGA
3. UCUACU
4. GCGGGU
5. CCAGGG
6. GCCCUU
7. GCUCAG
8. ACACUC

Marked response:
[2.04, 1.98, 2.02, 2.05, 1.99, 2.02, 1.96, 2.05]

List the reported normalized RNA/DNA level without ligand (log10) of each variant below.
1. AUAUCG
2. GUCAGC
3. UUGCCG
4. CAAUAC
5. GCAGUA

Marked response:
1. 1.96
2. 1.98
3. 1.97
4. 1.98
5. 1.98
